Tested on: MIA Paca-2 cells
assay.protocol: Anti-proliferative effect by Cell Titer-Glo, MIA Paca-2
Format: cell-based
study.conditions: Homo sapiens, 72 h; MIA Paca-2 cells, 3 days, Cell Titer-Glo; read-out: IC50 measured value MIA Paca-2
endpoint.name: IC50

In [3]: df
Out[3]:
                                    molecule  endpoint_name       result
 0  CCn1cnc2ccc(-n3ncc4cnc(Nc5ccc(N6CCN(C)CC6)cc5)nc43)cc21           IC50  0.1 to 1 µM
 1  CCC1(O)CCc2ccc(-n3ncc4cnc(Nc5ccc(N6CCN(C)CC6)cc5)nc43)nc21 (centres unmarked)           IC50  0.1 to 1 µM
 2  CN1CCN(c2ccc(Nc3ncc4cnn(-c5cc(C(C)(C)O)ccn5)c4n3)cc2)CC1           IC50  0.1 to 1 µM
 3  Cc1cc(Nc2ncc3cnn(-c4cccc(C(C)(C)O)n4)c3n2)ccc1N1CCN(C)CC1           IC50  0.1 to 1 µM
 4  CN1CCN(c2ccc(Nc3ncc4cnn(-c5cncc(C(C)(C)O)c5)c4n3)cc2)CC1           IC50  0.1 to 1 µM
 5  CN1CCN(c2ccc(Nc3ncc4cnn(-c5cncc(N=S(C)(C)=O)c5)c4n3)cc2)CC1           IC50  0.1 to 1 µM
 6  CN1CCN(c2ccc(Nc3ncc4cnn(-c5ccnc(C(C)(C)O)c5)c4n3)cc2)CC1           IC50  0.1 to 1 µM
 7  CN1CCN(c2ccc(Nc3ncc4cnn(-c5ccc6c(c5)C(=O)NCC6)c4n3)cc2)CC1           IC50  0.1 to 1 µM
 8  COc1cc(Nc2ncc3cnn(-c4cccc(N=S(C)(C)=O)n4)c3n2)ccc1N1CCN(C)CC1           IC50  0.1 to 1 µM
 9  CS(C)(=O)=Nc1cccc(-n2ncc3cnc(Nc4ccc(CC5C(=O)C6CCN5CC6)cc4)nc32)n1 (centres unmarked)           IC50  0.1 to 1 µM
10  CN1CCN(c2ccc(Nc3ncc4cnn(-c5ccnc(N=S(C)(C)=O)c5)c4n3)cc2)CC1           IC50    1 to 5 µM

---

Tested on: H1299 cells
assay.protocol: Anti-proliferative effect by Cell Titer-Glo, H1299
Assay type: cell-based
study.conditions: Homo sapiens, NCI-H1299, 72 h; H1299 cells, 3 days, Cell Titer-Glo; read-out: IC50 measured value H1299
endpoint.name: IC50

>>> print(df.to_string())
                                   compound  endpoint_name       result
0  CN1CCN(c2ccc(Nc3ncc4cnn(-c5ccc6c(c5)C(=O)NC6)c4n3)cc2)CC1 [Compound 46]           IC50    1 to 5 µM
1  CN1CCN(c2ccc(Nc3ncc4cnn(-c5ccc6cc[nH]c6c5)c4n3)cc2)CC1 [Compound 41]           IC50    1 to 5 µM
2  CS(C)(=O)=Nc1cccc(-n2ncc3cnc(Nc4ccc5c(c4)CNCC5)nc32)n1 [Compound 7]           IC50    1 to 5 µM
3  Cc1cc(Nc2ncc3cnn(-c4cccc(N=S(C)(C)=O)n4)c3n2)ccc1N1CCN(C)CC1 [Compound 16]           IC50  0.1 to 1 µM
4  Cc1nc2ccc(-n3ncc4cnc(Nc5ccc(N6CCN(C)CC6)cc5)nc43)cc2n1C [Compound 58]           IC50     < 0.1 µM
5  CN1CCN(C2CCN(c3ccc(Nc4ncc5cnn(-c6cccc(N=S(C)(C)=O)n6)c5n4)cc3)CC2)CC1 [Compound 20]           IC50    1 to 5 µM
6  CS(C)(=O)=Nc1cccc(-n2ncc3cnc(Nc4ccc(CC5C(=O)C6CCN5CC6)cc4)nc32)n1 (centres unmarked) [Compound 15]           IC50    1 to 5 µM
7  CN1CCN(c2ccc(Nc3ncc4cnn(-c5cccc(N=S(C)(C)=O)c5)c4n3)nc2)CC1 [Compound 56]           IC50   5 to 20 µM
